method_summary: Half life in cynomolgus monkey at 1 to 2 mg/kg, iv
Type: ADME, organism-based, Macaca fascicularis
Set-up: dose 1-2 mg/kg, route intravenous
reported_conditions: in vivo
endpoint_name: half-life (h)

H-TTWEAWDRAIAEYAARIEALIRASQEQQEKNEAELREL-OH : 1.2
H-TTWEAWDRAIAEYAARIEALIRALQEQQEKNEAILREL-OH : 12.4
H-TTWEAWDRAIAEYAARIEALIRALQELQEKNEAALREL-OH : 8.6
H-TTWEAWDRAIAEYAARIEALIRALQEQQEKNEAALREL-OH : 15.2
H-TTWEAWDRAIAEYAARIEALIRAAQELQEKNEAALREL-OH : 7.6

[a] H-TTWEAWDRAIAEYAARIEALIRAAQEQQEKLEAALREL-OH
[b] H-TTWEAWDRAIAEYAARIEALIRAAQEQQEKLEAVLREL-OH
[c] H-TTWEAWDRAIAEYAARIEALIRALQELQEKNEAILREL-OH
[d] H-TTWEAWDRAIAEYAARIEALIRAAQEQQEKNEAILREL-OH
[e] H-MTWEAWDRAIAEYAARIEALIRAAQEQQEKNEAALREL-OH
Exam item: list the entries in increasing order of half-life. Present the labels in the sequence the task asks for.
d, e, c, a, b
(d: 3.4 h, e: 5.1 h, c: 9.6 h, a: 17.9 h, b: 28.6 h)

###

method_summary: Clearance in cynomolgus monkey at 1 to 2 mg/kg, iv
Format: ADME, organism-based, Macaca fascicularis
Set-up: dose 1-2 mg/kg, route intravenous
reported_conditions: in vivo
endpoint_name: clearance (mL/min/kg)

[I] H-TTWEAWDRAIAEYAARIEALIRALQELQEKNEAALREL-OH
[II] H-TTWEAWDRAIAEYAARIEALIRAAQELQEKLEAALREL-OH
Between I and II , which one shows the larger clearance value? // return label of chosen record
I

[P] H-MTWEAWDRAIAEYAARIEALIRAAQEQQEKNEAALREL-OH
[Q] H-TTWEAWDRAIAEYAARIEALIRALQEQQEKNEAALREL-OH
Param metric = clearance; output whichever of P , Q has the minimum value. // return label of chosen record
Q

[A] H-TTWEAWDRAIAEYAARIEALIRAAQELQEKNEAALREL-OH
[B] H-TTWEAWDRAIAEYAARIEALIRALQEQQEKNEAILREL-OH
Between A and B , which one shows the larger clearance value? // return label of chosen record
A
